Each recorded value in this set is attributed to ChEMBL document CHEMBL1255503.

The reader will find pKi measurements below, all made with Mitogen-activated protein kinase 14 (Homo sapiens).
Sequence (Q16539 whole entry): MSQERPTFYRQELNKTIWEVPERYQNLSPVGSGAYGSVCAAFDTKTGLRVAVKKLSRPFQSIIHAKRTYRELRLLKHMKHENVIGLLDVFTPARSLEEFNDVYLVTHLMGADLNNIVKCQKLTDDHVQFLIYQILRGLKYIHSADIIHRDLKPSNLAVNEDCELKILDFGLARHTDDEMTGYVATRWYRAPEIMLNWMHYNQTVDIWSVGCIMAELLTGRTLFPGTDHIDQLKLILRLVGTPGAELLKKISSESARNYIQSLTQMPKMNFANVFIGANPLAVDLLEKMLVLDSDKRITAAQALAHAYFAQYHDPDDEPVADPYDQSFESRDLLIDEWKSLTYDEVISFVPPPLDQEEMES
Answers are plain numbers, as −log10 of the molar value.

Worked examples, 5 molecules total:
MOLECULE	TEST SYSTEM	pKi
Cc1ccc(-n2nc(C(C)(C)C)cc2NC(=O)Nc2cccc3ccccc23)cc1C(=O)NCCCN1CCCC1	Mitogen-activated protein kinase 14 (Homo sapiens)	6.52
Cc1ccc(-n2nc(C(C)(C)C)cc2NC(=O)Nc2cccc3ccccc23)cc1C(=O)NCC(CC(C)C)C(N)=O (stereo not drawn)	Mitogen-activated protein kinase 14 (Homo sapiens)	6.10
Cc1ccc(-n2nc(C(C)(C)C)cc2NC(=O)Nc2cccc3ccccc23)cc1C(=O)NCc1ccncn1	Mitogen-activated protein kinase 14 (Homo sapiens)	6.49
COCCCN1CCC(NC(=O)c2cc(-n3nc(C(C)(C)C)cc3NC(=O)Nc3cccc4ccccc34)ccc2C)CC1	Mitogen-activated protein kinase 14 (Homo sapiens)	6.47
Cc1ccc(-n2nc(C(C)(C)C)cc2NC(=O)Nc2cccc3ccccc23)cc1C(=O)NCC#N	Mitogen-activated protein kinase 14 (Homo sapiens)	6.60

Parameter requested: pKi. Apply to each item below.
1. Cc1ccc(-n2nc(C(C)(C)C)cc2NC(=O)Nc2cccc3ccccc23)cc1C(=O)NC[C@@H](CO)C(C)C
2. Cc1ccc(-n2nc(C(C)(C)C)cc2NC(=O)Nc2cccc3ccccc23)cc1C(=O)NC1CCN(CCN2CCOCC2)CC1

[A]
1: 6.33; 2: 6.05
